Values were extracted from patent US9883691B2.

# protocolSummary: PTR-MS headspace release with various non-aqueous liquids (diols) at 0.05:100 (Example 3)
# Format: physicochemical
# conditionSummary: non-aqueous liquid 1,7-heptanediol; ratio 0.05:100; diluted in water
Classes (PTR-MS headspace release in 1,7-heptanediol): low band (below 20), middle band (20 to below 70), high band (70 or more)

1) CCCCCCCCCC(=O)OCC [Ethyl decanoate]	high band
2) CC(C)CC=O [Isovaleraldehyde]	middle band
3) CCCC(=O)O [Butyric acid]	high band
4) CCCCOC(=O)CCC [Butyl butyrate]	middle band
5) O=Cc1ccccc1 [Benzaldehyde]	high band

Could you place CC(C)=CCCC(C)=CC=O [Citral, 3,7-dimethyl-2,6-octadienal] in its proper category? Many thanks.
middle band

Lab note: which band did CC(=O)O [Acetic acid] land in?
low band

# classify by PTR-MS headspace release in 1,7-heptanediol band: SCc1ccco1 [Furfuryl mercaptan]
low band

====

A collection of molecules and their measured PTR-MS headspace release in 1,3-propanediol
# protocolSummary: PTR-MS headspace release with various non-aqueous liquids (diols) at 0.05:100 (Example 3)
# Assay type: physicochemical
# conditionSummary: non-aqueous liquid 1,3-propanediol; ratio 0.05:100; diluted in water
API note: the answer field is a bare number with no unit suffix.

Below, each entry is followed by its recorded PTR-MS headspace release in 1,3-propanediol result.
1. CCCCCCCCCC(=O)O	0.20
2. CC(=O)O	9.90
3. CCCCCCCCCC(=O)OCC [Ethyl decanoate]	23.9

Now for the molecule whose PTR-MS headspace release in 1,3-propanediol we want.
Which PTR-MS headspace release in 1,3-propanediol reading was recorded for the molecule CCO ?
18.60

====

Each item that follows carries a reported PTR-MS headspace release in 1,3-butanediol.
# protocolSummary: PTR-MS headspace release with various non-aqueous liquids (diols) at 0.05:100 (Example 3)
# Assay type: physicochemical
# conditionSummary: non-aqueous liquid 1,3-butanediol; ratio 0.05:100; diluted in water
Simply state the number, no unit and no words.

Please review the following examples before continuing.
1. SCc1ccco1	1.3
2. CCCC(=O)O	91.7
3. CCCCCCCCCC(=O)O	0.6
4. O=Cc1ccccc1	250.0

// next entry
Param item = CCCCCCCCCC(=O)OCC [Ethyl decanoate] ; retrieve measured PTR-MS headspace release in 1,3-butanediol.
117.0

====

Form field: Sample A (PG) Mean (one value per entry).
# protocolSummary: PTR-MS real-time headspace release, watermelon flavor model in water (Example 1)
# Assay type: physicochemical
# Parameters: unit not given here
# conditionSummary: PTR-MS headspace; watermelon flavor concentrate in propylene glycol, diluted in water; 90 minutes equilibration; mean of three
Counter-ions that a name gives are not always drawn.
Kindly provide the number alone.

Completed entries (count: 4):
1. CCCC(=O)OCC [Ethyl butyrate]	10983
2. CCOC=O [Ethyl formate]	50.50
3. CCC/C=C/C(=O)O [Trans-2-hexenoic acid]	1.06
4. CC=O [Acetaldehyde]	803.33

Now turn to the next compound.
Need Sample A (PG) Mean of O=CCc1ccccc1 [Phenyl acetaldehyde] , thanks.
0.80

====

# protocolSummary: PTR-MS headspace release with various non-aqueous liquids (diols) at 0.05:100 (Example 3)
# Format: physicochemical
# conditionSummary: non-aqueous liquid 1,4-butanediol; ratio 0.05:100; diluted in water
# Method: […]. The flavoring was then diluted in water for analysis. […] A variety of non-aqueous liquids were evaluated, including 1,4-butandiol; 1,7-heptandiol; 1,3-butandiol, propylene glycol, and 1,3-propanediol. Samples were analyzed by PTR-MS as described in Example 1. Percent suppression was calculated by the following formula: (I1-3-diol−Ialternate diol)/Ialternate diol×100.
Threshold check on PTR-MS headspace release in 1,4-butanediol: at or above 60 gives fulfilled, strictly below gives not fulfilled.

// known answers, use as guide
1) CC=O	fulfilled
2) COc1ccccc1O	not fulfilled
3) CC(=O)O	not fulfilled

Given CCCCCCCCO , state whether its PTR-MS headspace release in 1,4-butanediol is at least 60.
not fulfilled

Please check the record CC(C)CC=O and state if its PTR-MS headspace release in 1,4-butanediol is at or above 60.
fulfilled

Would you say CCCCCCCCCC(=O)O shows PTR-MS headspace release in 1,4-butanediol at minimum 60?
not fulfilled

Is it the case that CCCCCCCC=O has PTR-MS headspace release in 1,4-butanediol reaching or exceeding 60?
not fulfilled

Answer whether PTR-MS headspace release in 1,4-butanediol of CCO is greater than or equal to 60.
not fulfilled

====

Item-by-item account of Percent Suppression by 1,3-propanediol
# protocolSummary: PTR-MS headspace release at various flavor compound to 1,3-propanediol or PG ratios (Example 2)
# Format: physicochemical
# conditionSummary: ratio 5:100; (IZ−IPG)/IPG×100
Numeric only. Scale: %

Consider the worked cases shown below.
1) CC(C)=CCCC(C)=CC=O	−45.4
2) CCCCCCCCO	−19.1

# lookup: Percent Suppression by 1,3-propanediol of CCCC(=O)O
−18.4

Given the entry CCCCCCCCCC(=O)OCC [Ethyl decanoate] , report its measured Percent Suppression by 1,3-propanediol.
17.8

Recorded Percent Suppression by 1,3-propanediol for CCCC(=O)OCC [Ethyl butyrate] , please?
−21.8

====

In this section we review reported Sample B (1,3-propanediol) Mean values for a set of compounds.
# protocolSummary: PTR-MS real-time headspace release, watermelon flavor model in water (Example 1)
# Type: physicochemical
# Parameters: unit not given here
# conditionSummary: PTR-MS headspace; watermelon flavor concentrate in 1,3-propanediol, diluted in water; 90 minutes equilibration; mean of three
# Method: The impact of 1,3-propanediol on the release of flavor compounds can be analyzed by Proton Transfer Reaction Mass Spectrometry (PTR-MS; model TOF-8000 from Ionicon Analytik Inc.), where real-time headspace release of volatiles is measured. […] 15 grams of the sample to be tested (e.g., food or beverage product containing 1,3-propanediol) are added to the vessel. […] The comparative sample is then analyzed in triplicate by PTR-MS using the above-described procedure. […]
Structures can show the parent of a compound that is named as a salt.
No unit in the answer, only the number.

Worked set:
1) CCc1occc(=O)c1O [Ethyl maltol]	1.25
2) COc1cc(C=O)ccc1O [Vanillin]	0.05
3) CCC(C)COC(C)=O (centres unmarked) [2-methylbutyl acetate]	4.27
4) CCOC=O [Ethyl formate]	41.67
5) CC=O [Acetaldehyde]	877

Field request: Sample B (1,3-propanediol) Mean | item: O=Cc1ccccc1 [Benzaldehyde]
32.00

Any idea what its Sample B (1,3-propanediol) Mean is? The compound is C/C=C\C(=O)C1C(C)=CCCC1(C)C (stereo not drawn) [Alpha damascone]
0.57

Value lookup for Sample B (1,3-propanediol) Mean; key = CC(=O)CCc1ccc(O)cc1 [Raspberry ketone]
0.04

====

# protocolSummary: PTR-MS real-time headspace release, watermelon flavor model in water (Example 1)
# Assay type: physicochemical
# conditionSummary: Sample B (1,3-propanediol) relative to Sample A (PG)
experimentalEndpoint: Percent Release Difference
Answer format: number, then unit.

1. CCc1occc(=O)c1O [Ethyl maltol]	0.0%
2. CCOC(C)=O [Ethyl acetate]	−21.5%

With those in mind, consider the next compound.
Need Percent Release Difference, item CC(=O)CCc1ccc(O)cc1 [Raspberry ketone]
−48.1%

====

# protocolSummary: PTR-MS headspace release with various non-aqueous liquids (diols) at 0.05:100 (Example 3)
# Type: physicochemical
# conditionSummary: non-aqueous liquid 1,7-heptanediol; ratio 0.05:100; diluted in water
Measured PTR-MS headspace release in 1,7-heptanediol, listed per entry for reference.
Enter the number alone.

// known answers, use as guide
1. COc1ccccc1O	36.2
2. CCCCCCCC=O	67.0
3. CCCCCCO	0.3
4. CCCCCCCCCC(=O)O	1.0

Consider the compound shown here: CCCC(=O)OCC [Ethyl butyrate] What is its recorded PTR-MS headspace release in 1,7-heptanediol?
223.5

For the compound Cc1nc(C)c(C)nc1C , what PTR-MS headspace release in 1,7-heptanediol is on record?
22.0

Entry C=C(C)[C@H]1CC=C(C)CC1 : reported PTR-MS headspace release in 1,7-heptanediol = ?
59.5

Quick check: PTR-MS headspace release in 1,7-heptanediol of CC=O ?
206.5

Please look up its PTR-MS headspace release in 1,7-heptanediol: CCCCCCCCO
6.2

I'd like to know its PTR-MS headspace release in 1,7-heptanediol. The compound in question is CCO
24.5
